Please respond with reported inhibition at 4 h, 12.5 µM for every item in the list.
- Protocol Description: LDH release cytotoxicity assay
- Assay type: cell-based
- Stated Conditions: human, U937 cells
One number for each entry, in %.

COC(=O)COc1ccc(NC(=O)C2(c3cccc(C)c3)CC2)cc1 = -1
COC(=O)COc1ccc(NC(=O)C2(c3ccc(OC)cc3)CC2)cc1 = -3
COC(=O)COc1cccc(NC(=O)C2(c3ccccc3)CC2)c1 = -1
COC(=O)COc1ccc(NC(=O)C2(c3ccccc3)CC2)cc1 = -2

Ask | Give the reported value of inhibition at 4 h, 12.5 µM for this record: COC(=O)COc1ccc(NC(=O)C2(c3ccc(Cl)c(Cl)c3)CC2)cc1
Reply | 4

* * *

- Protocol Description: LDH release cytotoxicity assay
- Type: cell-based
- Stated Conditions: human, U937 cells
Please respond with reported inhibition at 4 h, 50 µM for every item in the list.
Numbers only, in %.

For orientation, consider the following solved cases.
COC(=O)COc1cccc(NC(=O)C2(c3cccc(C)c3)CC2)c1 = -1
COC(=O)COc1ccc(NC(=O)C2(c3ccccc3)CC2)c(C)c1 = 0
COC(=O)COc1ccc(NC(=O)C2(c3ccc(F)cc3)CC2)cc1 = -2
COC(=O)COc1cccc(NC(=O)C2(c3ccccc3)CC2)c1 = 2
COC(=O)COc1ccc(NC(=O)C2(c3ccccc3)CC2)cc1 = -2
COC(=O)COc1ccc(NC(=O)C2(c3ccc(F)cc3)CC2)c(C)c1 = -1
COC(=O)COc1ccc(NC(=O)C2(c3ccc(Cl)cc3)CC2)c(C)c1 = 1
COC(=O)COc1ccc(NC(=O)C2(c3cccc(C)c3)CC2)cc1 = 0

Alright, here's another molecule for you.
Ask | Give the reported value of inhibition at 4 h, 50 µM for this record: COC(=O)COc1cccc(NC(=O)C2(c3cccc(Br)c3)CC2)c1
Reply | 0

* * *

Please respond with reported inhibition at 4 h, 12.5 µM for every item in the list.
- Protocol Description: LDH release cytotoxicity assay
- Type: cell-based
- Stated Conditions: human, U937 cells
Please format your answer as a value with the unit trailing.

COC(=O)COc1ccc(NC(=O)C2(c3ccccc3)CC2)cc1Br [Compound 8d] = -1%
COC(=O)COc1cccc(NC(=O)C2(c3cccc(Br)c3)CC2)c1 [Compound 8p] = 0%
COC(=O)COc1ccc(NC(=O)C2(c3cccc(C)c3)CC2)c(C)c1 [Compound 8g] = 0%
COC(=O)COc1ccc(NC(=O)C2(c3ccccc3)CC2)c(C)c1 [Compound 8c] = 0%
COC(=O)COc1cccc(NC(=O)C2(c3ccc(Cl)cc3)CC2)c1 [Compound 8l] = -1%

List inhibition at 4 h, 12.5 µM for every entry below, keeping the order given.
1. COC(=O)COc1ccc(NC(=O)C2(c3ccc(Cl)cc3)CC2)cc1 [Compound 8m]
2. COC(=O)COc1ccc(NC(=O)C2(c3cccc(Br)c3)CC2)c(C)c1 [Compound 8r]
3. COC(=O)COc1ccc(NC(=O)C2(c3ccc(Cl)cc3)CC2)c(C)c1 [Compound 8n]
4. COC(=O)COc1ccc(NC(=O)C2(c3ccc(F)cc3)CC2)c(C)c1 [Compound 8k]
5. COC(=O)COc1ccc(NC(=O)C2(c3ccc(Cl)cc3)CC2)cc1Br [Compound 8o]
6. COC(=O)COc1cccc(NC(=O)C2(c3cccc(C)c3)CC2)c1 [Compound 8e]

Reply |
1. -1%
2. -1%
3. 0%
4. 0%
5. 0%
6. -3%

List inhibition at 4 h, 12.5 µM for every entry below, keeping the order given.
1. COC(=O)COc1cccc(NC(=O)C2(c3ccc(OC)cc3)CC2)c1 [Compound 8h]
2. COC(=O)COc1ccc(NC(=O)C2(c3ccc(F)cc3)CC2)cc1 [Compound 8j]

Reply |
1: 0%; 2: 0%
